target: human Werner helicase (WRN-BV08, Uniprot Q14191, amino acids 517-1235 with L1074F point mutation) (Homo sapiens, UniProt Q14191, L1074F); construct: Uniprot Q14191, amino acids 517-1235 with L1074F point mutation; TEV-cleavable 8×His (C, cleaved yes); made in house; host or cells: Sf9 insect cells (baculovirus); assay: WRN (BV08) ADP-Glo Assay; type: biochemical; conditions: 0.15 nM WRN, 5 μM ATP, 0.1 nM DNA duplex, 15 min preincubation, 60 min at 25° C., pH 7.5, 1% DMSO; read-out: ADP-Glo_hWRN_IC50
Sequence (Q14191 with tags, fused parts or gaps L1074F limits assumed): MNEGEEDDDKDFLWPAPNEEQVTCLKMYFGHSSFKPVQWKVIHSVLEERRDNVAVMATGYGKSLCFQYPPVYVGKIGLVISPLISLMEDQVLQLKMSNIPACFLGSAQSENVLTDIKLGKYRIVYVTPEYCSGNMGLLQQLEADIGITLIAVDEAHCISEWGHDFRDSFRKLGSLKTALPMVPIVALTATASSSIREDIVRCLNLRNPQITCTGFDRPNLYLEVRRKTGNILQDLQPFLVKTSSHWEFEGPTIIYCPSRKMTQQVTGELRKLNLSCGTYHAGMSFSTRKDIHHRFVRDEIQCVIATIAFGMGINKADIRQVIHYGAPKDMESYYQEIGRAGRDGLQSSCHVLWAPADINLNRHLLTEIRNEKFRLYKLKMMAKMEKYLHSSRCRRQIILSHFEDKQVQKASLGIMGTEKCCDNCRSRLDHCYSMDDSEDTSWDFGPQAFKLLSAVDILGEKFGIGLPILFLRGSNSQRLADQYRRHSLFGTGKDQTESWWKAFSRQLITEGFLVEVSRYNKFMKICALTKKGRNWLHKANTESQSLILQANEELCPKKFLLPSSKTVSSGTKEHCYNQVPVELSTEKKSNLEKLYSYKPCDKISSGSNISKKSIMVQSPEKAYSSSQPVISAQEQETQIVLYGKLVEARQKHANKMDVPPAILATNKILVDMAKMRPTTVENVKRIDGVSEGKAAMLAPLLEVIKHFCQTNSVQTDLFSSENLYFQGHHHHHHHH
pIC50: −log10 of the molar value.
metric: pIC50

* CC(C)(O)c1cc(CN(C(=O)CCc2ccc(S(F)(F)(F)(F)F)cc2)C2C=CS(=O)(=O)C2)ccn1 (single isomer, unassigned) | 5.00 to 5.30
* COc1cc(CN(C(=O)C(c2ccc(-c3ccc(F)c(F)c3)cc2F)n2cnnn2)[C@@H]2C=CS(=O)(=O)C2)ccn1 (stereo partly shown) | < 4.30
* CC(C(=O)N(Cc1ccncc1)C1C=CS(=O)(=O)C1)n1cc2ccccc2n1 (stereo not shown) | < 4.30
* COc1cc(CN(C(=O)Cc2ccc(-c3ccc(F)cc3)cc2)C2C=CS(=O)(=O)C2)ccn1 (stereo not shown) | 5.30 to 6.30
* CC(C)(O)c1csc(CN(C(=O)Cc2ccc(-c3ccc(F)cc3)cc2F)C2C=CS(=O)(=O)C2)n1 (stereo not shown) | > 6.30

I have this molecule here, COc1cc(CN(C(=O)Cn2cc(-c3ccc(F)cc3)cn2)[C@@H]2C=CS(=O)(=O)C2)ccn1 , and I need its recorded pIC50.
> 6.30

Now give it for O=C(Cc1ccc(-c2ccc(F)cc2)c(C(F)F)c1)N(Cc1ccncc1)C1C=CS(=O)(=O)C1 (stereo not shown) too.
< 4.30

----------
// IC50 lookup, one value per entry
Molecular target: human Werner helicase (WRN-BV08, Uniprot Q14191, amino acids 517-1235 with L1074F point mutation) (Homo sapiens, UniProt Q14191, L1074F)
Construct: Uniprot Q14191, amino acids 517-1235 with L1074F point mutation; TEV-cleavable 8×His (C, cleaved yes); made in house; host or cells: Sf9 insect cells (baculovirus)
Assay: WRN (BV08) ADP-Glo Assay
Assay type: biochemical
Conditions: 0.15 nM WRN, 5 μM ATP, 0.1 nM DNA duplex, 15 min preincubation, 60 min at 25° C., pH 7.5, 1% DMSO; read-out: ADP-Glo_hWRN_IC50
Text: Example 2: WRN (BV08) ADP-Glo Assay Protocol Bovine skin gelatin (BSG), dimethyl sulfoxide (DMSO), Pluronic F-127 and Tris(2-carboxyethyl)phosphine hydrochloride solution (TCEP) were purchased from Sigma-Aldrich at the highest level of purity possible. […] The reaction was stopped by the addition of the ADP-Glo Kit components (Promega) as directed and the relative luminescence units (RLU) were read on an Envision 2104 (Perkin Elmer). […]

Please review the entries below; each comes with its answer.
* O=C(C(C(=O)N(Cc1ccncc1)C1C=CS(=O)(=O)C1)c1ccc(-c2ccc(F)cc2)cc1)N1CCC1 (centres unmarked) [I-140] | 0.5 to 5 µM
* COc1cccc(CN(C(=O)Cc2ccc(-n3cccc3)cc2)C2C=CS(=O)(=O)C2)c1 (centres unmarked) [I-234] | 5 to 10 µM
* COc1cc(CN(C(=O)Cc2ncc(-c3ccc(F)c(F)c3)cc2F)C2C=CS(=O)(=O)C2)ccn1 (centres unmarked) [I-129] | 0.5 to 5 µM
* Cn1cc(CCC(=O)N(Cc2ccncc2)C2C=CS(=O)(=O)C2)c2ccc(Br)cc21 (centres unmarked) [I-565] | > 50 µM
* CNC(=O)C(C(=O)N(Cc1ccnc(C(C)(C)O)c1)C1C=CS(=O)(=O)C1)c1ccc(-c2ccc(F)c(F)c2)cc1F (single isomer, unassigned) [I-689] | < 0.5 µM
* O=C(Cc1ccc(-c2ccc(F)cc2)cc1F)N(Cc1ccnc(OC2CC2)c1)C1C=CS(=O)(=O)C1 (centres unmarked) [I-110] | 0.5 to 5 µM

Using the record for COc1cc(CN(C(=O)C(OC)c2ccc(-c3ccc(F)cc3)cc2F)C2C=CS(=O)(=O)C2)ccn1 (single isomer, unassigned) [I-366] , report its IC50.
> 50 µM

// repeat for O=C(CCc1ccc(-n2cccc2)cc1)N(Cc1ccncc1)C1C=CS(=O)(=O)C1 (centres unmarked) [I-519] and report
> 50 µM

What do you get for O=C(Cc1ccc(-n2cccc2)cc1)N(Cc1nc(-c2cccnc2)cs1)C1C=CS(=O)(=O)C1 (centres unmarked) [I-146] ?
0.5 to 5 µM

Try this compound too: Cn1nc(-c2ccccc2)cc1CC(=O)N(Cc1ccncc1)C1C=CS(=O)(=O)C1 (centres unmarked) [I-609]
> 50 µM

Also check CCC(C(=O)N(Cc1ccncc1)C1C=CS(=O)(=O)C1)c1ccc(-n2cccc2)cc1 (centres unmarked) [I-484]
> 50 µM
